tested on: HBV rcDNA; assay: HepDE19 assay with bDNA quantitation of HBV rcDNA; type: cell-based, hepatitis B virus; conditions: HepDE19 assay, inhibition of formation of relaxed circular DNA (rcDNA), bDNA quantitation; read-out: DE-19bDNA EC50
Binning scheme for EC50: low group = under 20 nM, middle group = from 20 nM up to 2000 nM, high group = 2000 nM and over

| molecule | assigned_class |
| --- | --- |
| CC(c1c[nH]c(=O)c2cc(F)c(F)cc12)N(CCS(N)(=O)=O)C(=O)Nc1ccc(F)c(Cl)c1 (single isomer, unassigned) [Compound 386] | low group |
| CC(c1c[nH]c(=O)c2c(F)c(F)ccc12)N(C)C(=O)Nc1cccc(F)c1F (single isomer, unassigned) [Compound 459] | middle group |
| CC(c1c[nH]c(=O)c2cc(F)c(F)cc12)N(C)C(=O)Nc1ccc(F)c(C#N)c1 (single isomer, unassigned) [Compound 428] | middle group |
| CC(c1c[nH]c(=O)c2c(F)c(F)ccc12)N(C)C(=O)Nc1ccc(F)c(Cl)c1 (single isomer, unassigned) [Compound 330] | middle group |
| CC(c1cnc(OCc2ncn(C)n2)c2cc(F)c(F)cc12)N(CCCO)C(=O)Nc1ccc(F)c(Cl)c1 (single isomer, unassigned) [Compound 349] | low group |
| Cc1cc(NC(=O)N(C)C(C)c2c[nH]c(=O)c3c(F)c(F)ccc23)ccc1F (single isomer, unassigned) [Compound 441] | low group |
| CCN(C(=O)Nc1ccc(F)c(F)c1)C(C)c1c[nH]c(=O)c2cc(F)c(F)cc12 (single isomer, unassigned) [Compound 422] | high group |
| CC(c1c[nH]c(=O)c2c(F)c(F)ccc12)N(C)C(=O)NCc1ccc(F)c(F)c1 (single isomer, unassigned) [Compound 490] | middle group |
| CC(c1cn(C)c(=O)c2cc(F)ccc12)N(C)C(=O)Nc1ccc(F)c(Cl)c1 (single isomer, unassigned) [Compound 302] | high group |
| CC(c1cn(C)c(=O)c2c(F)c(F)ccc12)N(C)C(=O)Nc1ccc(F)c(Cl)c1 (single isomer, unassigned) [Compound 332] | high group |
| CC(c1c[nH]c(=O)c2ccccc12)N(Cc1ccncc1)C(=O)Nc1ccc(F)c(Cl)c1 (single isomer, unassigned) [Compound 309] | high group |
| CCN(C(=O)Nc1ccc(F)cc1)C(C)c1c[nH]c(=O)c2c(F)c(F)ccc12 (single isomer, unassigned) [Compound 465] | low group |

----------
Reported log10 of EC50 values are given for each entry in this list.
system: HBV rcDNA; assay: HepDE19 assay with bDNA quantitation of HBV rcDNA; format: cell-based, hepatitis B virus; settings: HepDE19 assay, inhibition of formation of relaxed circular DNA (rcDNA), bDNA quantitation; read-out: DE-19bDNA EC50
measured_endpoint: log10 of EC50 (log10 of the value in µM)

| molecule | measured_endpoint | recorded_result |
| --- | --- | --- |
| CC(C)CN(C(=O)Nc1ccc(F)cc1)C(C)c1c[nH]c(=O)c2c(F)cc(F)cc12 (single isomer, unassigned) [Compound 375] | log10 of EC50 | 0.23 |
| CC(c1c[nH]c(=O)c2c(F)c(F)ccc12)N(C)C(=O)Nc1ccc(F)c(Cl)c1 (single isomer, unassigned) [Compound 331] | log10 of EC50 | -1.82 |
| CC(C)CN(C(=O)Nc1ccc(F)cc1)C(C)c1c[nH]c(=O)c2cc(F)c(F)cc12 (single isomer, unassigned) [Compound 287] | log10 of EC50 | 0.18 |
| CC(C)CN(C(=O)Nc1ccc(F)c(Cl)c1)C(C)c1cn(C)c(=O)c2cc(F)c(F)cc12 (single isomer, unassigned) [Compound 342] | log10 of EC50 | -0.21 |
| CC(c1c[nH]c(=O)c2c(F)cc(F)cc12)N(CCS(N)(=O)=O)C(=O)Nc1ccc(F)c(Cl)c1 (single isomer, unassigned) [Compound 389] | log10 of EC50 | 0.52 |
| CC(c1c[nH]c(=O)c2cc(F)c(F)cc12)N(C)C(=O)Nc1ccc(F)c(C(F)F)c1 (single isomer, unassigned) [Compound 501] | log10 of EC50 | -0.14 |
